Every entry's value here was drawn from PubChem BioAssay (NCI).

- Test system: SNB-75 CNS
- test.method.notes: NCI-60 one-dose screen, 48 h
- experimental.conditions: 10 µM unless noted
Compounds without any hit were thinned out: in the full panel of roughly 83,000, 20% have a hit. The source made the active and inactive calls. Rule for the calls: active = growth percent below 10; inactive = the rest.
Select the correct class. Options are T (active), F (inactive) and nothing else.

So what was the verdict on CN=S(=O)(NC(=O)c1ccc(Cl)cc1Cl)c1ccc(Br)s1 (stereo not given) in this test?
F

How did this test come out for CCOC(=O)CC(C#N)(CC(=O)OCC)C(=O)OCC ?
F

Record request — test call for CC1Cc2c(N(C)C)ncnc2N(C)c2ccc(Cl)cc21 (stereo not given)
T

Give the logged outcome of this assay for the following compound: COc1cc(Cn2c(SCCC(=O)Nc3ccc(F)cc3)nc3ccccc3c2=O)cc(OC)c1OC
F

Please share the test call associated with O=C(O)c1cn(C2CC2)c2cc(N3CCN(S(=O)(=O)c4ccc(Cl)c(Cl)c4)CC3)c(F)cc2c1=O .
F

Entry CCOC(=O)C(Cc1ccccc1)n1c(O)c(C=Nc2ccc(C(=O)OCCN(CC)CC)cc2)sc1=O (stereo not given) : call = ?
F

Please share the test call associated with O=C(N/N=C/c1c(Cl)cccc1Cl)c1ccccc1Nc1ccnc(C(F)(F)F)c1 .
F

Could you please tell me the result logged for CC(=O)Nc1nc(C(=O)N2N=C(C)/C(=C/c3ccc(Cl)cc3)C2=O)cs1 in this assay?
F

Query: recorded result category for Cc1ccccc1C(=O)c1ccccc1C(=O)O in this test
F

Lab log entry: COc1cc(C2CC(c3c(C)[n+]([O-])c4ccccc4[n+]3[O-])=NN2)cc(OC)c1OC (stereo not given) — outcome as called in the assay?
F

---

- System: DU-145 prostate
- test.method.notes: NCI-60 one-dose screen, 48 h
- experimental.conditions: 10 µM unless noted
This is part of a sample that, as a whole, favours compounds with a hit. Of some 83,000 tested, about 20% had one in any assay. Activity calls are given as the source filed them. How the source made its calls: active means growth percent below 10; inactive means the rest.
Returns: one label drawn from true (1) for active, false (0) for inactive

Recorded call for COc1ccc(C2=NN(c3ccc(S(N)(=O)=O)cc3)C(c3cn(-c4ccccc4)nc3-c3ccc(Cl)cc3)C2)cc1 (stereo not given) ?
false (0)

Kindly provide the recorded test outcome for the following molecule: O=C(O)c1ccc(-n2cc(CNc3ccc(C(F)(F)F)cc3)c(-c3ccccc3)n2)cc1
false (0)

Per the records of this test, what outcome belongs to CCCS(=O)(=O)c1nc(NC2CC2)cc(-c2ccc3c(ccn3C3CC(C)(C)NC(C)(C)C3)c2)n1 ?
true (1)

Just curious, what result did CC(=O)OC[Si](C)(C)c1ccccc1 get here?
false (0)

Hello, I am checking results. What call was entered for COc1cccc(NC(=O)Cn2cc3c(=O)oc4ccccc4c3n2)c1 ?
false (0)

---

- Test system: CCRF-CEM leukemia
- test.method.notes: NCI-60 one-dose screen, 48 h
- experimental.conditions: 10 µM unless noted
Compounds without any hit were thinned out: in the full panel of roughly 83,000, 20% have a hit. Active and inactive are the calls of the source. Rule for the calls: active = growth percent below 10; inactive = the rest.
Returns: one label drawn from active, inactive

Hey, what did the test say about COc1ccc2c(c1)NC(=O)CN2c1nc(NC2CC2)nc2ccccc12 ?
inactive

Dear colleague, could you share the recorded outcome for Cc1ccc2c(c1)C(C)Cc1c(N(C)C)ncnc1N2C (stereo not drawn) when you have a moment?
inactive

Identify the outcome logged in this assay for the compound shown: CC(Br)C(OC(=O)c1ccccc1Cl)c1cc2c(cc1Br)OCO2 (stereo not drawn)
inactive

// outcome(item) with item = CCC(c1cccc(Br)c1)C(C(=O)O)c1ccc(OC)cc1 (stereo not drawn)
inactive

Hi, sorry to bother you, what did the test record for O=S(=O)(NCCCNc1cc(-c2cn(-c3ccccc3)nc2-c2cccc(O)c2)ccn1)c1ccc(Br)cc1 ?
inactive

Hey, what did the test say about COc1ccc(C(=O)/C=C/c2cccc([N+](=O)[O-])c2)c(OC)c1 ?
active

For this compound, state the assay outcome: CCSc1nnc(NC(=O)COc2ccc(Cl)cc2C)s1
inactive

Assay result, entry Cc1ccc2c(c1)ncn2-c1ncnc2c1CC(C)c1ccccc1N2C (stereo not drawn) — outcome?
inactive

What did the test return for Cc1cc2c(c(=O)o1)C(c1ccc(OC(=O)N3CCOCC3)cc1)C(C#N)=C(N)O2 (stereo not drawn) ?
inactive

Please state the recorded outcome for this compound: O=C(CN1CCN(c2cc3c(cc2F)c(=O)c(C(=O)O)cn3C2CC2)CC1)Nc1ccc(C(=O)/C=C/c2ccccc2)cc1
inactive

Answer briefly: the call reported for CCSc1nnc(NC(=O)Cc2ccc(Cl)cc2)s1 in this assay.
inactive

Recorded test call requested for CCCS(=O)(=O)c1nc(NC2CC2)cc(-c2ccc3c(ccn3C3CC(C)(C)NC(C)(C)C3)c2)n1
active

Tell me the recorded outcome of this test for CC[C@]1(O)C[C@@H]2CN(Cc3c([nH]c4ccccc34)[C@@](C(=O)OC)(c3cc4c(cc3OC)N(C)[C@H]3[C@@](O)(C(=O)OC)[C@H](OC(C)=O)[C@]5(CC)[C@@H]6C[C@@H]6CN6CC[C@]43[C@@H]65)C2)C1 .
active

Recorded call for COc1ccc(C2CC(c3cccs3)=NN2c2ccc(S(=O)(=O)NC(=O)Nc3ccc(C)cc3)cc2)cc1 (stereo not drawn) ?
inactive

// param item: CCCCCCCCCCC/C=C\C[C@H](O)C/C=C1/C(=O)C=C[C@@H]1C/C=C\CCCC(=O)OC ; yields the recorded call
inactive

Identify the outcome logged in this assay for the compound shown: N=C(N)c1ccc(-c2ccc(-c3ccc(Cl)cc3)o2)nc1
active

Called result for C=C1C(=O)O[C@H]2[C@H]1CC/C(COC(=O)NCCc1ccc(OC)cc1)=C\CC[C@@]1(C)O[C@@H]21
active

Lab log entry: CC(=O)c1cc(C(=O)c2ccc3c(c2)Sc2ccccc2N3)c2cc(C)ccn12 — outcome as called in the assay?
inactive

Assay outcome for Cc1ccc(OCCn2c(C)nn(-c3ccc(Cl)cc3)c2=O)cc1 : what was it?
inactive

# fetch the recorded call for Cc1cccc(NC(=O)c2sc3nc4c(cc3c2N)CCCC4)c1 here
inactive

Hi, sorry to bother you, what did the test record for O=C1Nc2cc(Cl)ccc2Oc2cc(Oc3ccccc3)ccc21 ?
inactive

// param item: Cc1nn(-c2ccc(Cl)cc2)c(=O)n1CCOc1ccccc1Cl ; yields the recorded call
inactive

Can you look up the reported call for CCOC(=O)C1=C(CSC(=S)N(C2CCCCC2)C2CCCCC2)N(C)C(=O)NC1c1ccccc1 (stereo not drawn) for me?
inactive

Could you please tell me the result logged for COc1ncc(-c2ccc3ncnc(Nc4cccc(Cl)c4)c3c2)cc1N(S(C)(=O)=O)S(C)(=O)=O in this assay?
inactive

What was the test verdict on O=C(CNc1ccc(Cl)cc1)Nc1ccc(-c2nc3ccccc3s2)cc1 ?
active

For O=C(CNC1CCCCC1)Nc1ccc(-c2nc3ccccc3s2)cc1 , what call appears in the results of this test?
inactive

What is the recorded call for this compound in the test? CC/C=C\C[C@H]1C/C=C2/C(=O)C(Cl)=C[C@@H]2C/C=C\CCCC(=O)O1
active

Fill in: this test's call for NC(=O)c1c(NC(=O)c2ccc(OCC3CCCO3)cc2)sc2c1CCCC2 (stereo not drawn) is ___
inactive

Status in this test for CN(C)c1ccc(-c2ccc(-c3ccc(C(=N)N)cn3)o2)cc1 ?
active

Check the results log: what was the call for Cc1ccc2nc(-c3c(CCCO)noc3N)[nH]c(=O)c2c1 ?
inactive

Answer briefly: the call reported for COc1cc(-c2csc(NC(=O)c3cc(C(F)(F)F)cc(C(F)(F)F)c3)n2)cc(OC)c1OC in this assay.
inactive

Test call, this compound: COC(=O)CCCCCCN=Cc1c(O)c(O)c(C(C)C)c2cc(C)c(-c3c(C)cc4c(C(C)C)c(O)c(O)c(C=NCCCCCCC(=O)OC)c4c3O)c(O)c12
inactive

Assay result, entry O=C(CN1CCN(c2cc3c(cc2F)c(=O)c(C(=O)O)cn3C2CC2)CC1)Nc1ccc(C(=O)/C=C/c2ccc(Cl)cc2)cc1 — outcome?
inactive

# fetch the recorded call for CC1CCN(C(=O)CSc2nc3sc4c(c3c(=O)[nH]2)CCCC4)CC1 here
inactive

In this assay, the call recorded for COc1cc(CCn2nnc3c(NCCCCO)ncnc32)cc(OC)c1 was what?
inactive

Each compound tested received a call. Report the one for COc1ccc(OC)c(-c2ccc(-c3ccccc3N)c3[nH]c4ccccc4c23)c1 .
inactive

Give the logged outcome of this assay for the following compound: CCN1C(=O)N[C@H]2[C@@H]3NC(=O)c4ccc(Cl)n4[C@@H]3C[C@]21O
active

Recorded call for COc1cc2c3c(c(=O)oc2cc1OS(=O)(=O)c1ccc(C(F)(F)F)cc1)CCCCC3 ?
inactive
